Sourced from patent US12723255B2

assay: enzyme activity assay at 23° C. with purified enzyme; type: biochemical; details: not robust enough to quantify
MEASURED_PROPERTY: activity with fluroxypyr as the substrate

MOLECULE: MON-HT17: engineered oxygenase protein, amino acid sequence SEQ ID NO:51 (protein) MHAALTPLTNKYRFIDVQPLTGVLGAEITGVDLREPLDDSTWNEILDAFHTYQVIYFPGQAITNEQHIAFSRRFGPVDPVPILKSIEGYPEVQMIRREANESSRYIGDDWHADSTFLDAPPAAVVMRAIEVPEYGGDTGFLSMYSAWETLSPTMQATIEGLNVVHSATKVFGSLYQATNWRFSNTSVKVMDVDAGDRETVHPLVVTHPVTGRRALYCNQVYCQKIQGMTDAESKSLLQFLYEHATQFDFTCRVRWKKDQVLVWDNLCTMHRAVPDYAGKFRYLTRTTVAGDKPSR
EXPERIMENTAL_RESULT: detectable activity

MOLECULE: MON-HT15: engineered oxygenase protein, amino acid sequence SEQ ID NO:49 (protein) MHAALTPLTNKYRHIDVQPLTGVLGAEITGVDLREPLDDSTWNEILDAFHTYQVIYFPGQAITNEQHIAFSRRFGPVDPVPILKSIEGYPEVQMIRREANESSRYIGDDWHADSTFLDAPPAAVVMRAIEVPEYGGDTGFLSMYSAWETLSPAMQATIEGLNVVHSATKVFGSLYQATNWRFSNTSVKVMDVDAGDRETVHPLVVTHPVTGRRALYCNQIYCQKIQGMTDAESKSLLQFLYEHATQFDFTCRVRWKKDQVLVWDNLCTMHRAVPDYAGKFRYLTRTTVAGDKPSR
EXPERIMENTAL_RESULT: detectable activity

MOLECULE: MON-HT13: engineered oxygenase protein, amino acid sequence SEQ ID NO:47 (protein) MHAALTPLTNKYRFIDVQPLTGVLGAEITGVDLREPLDDSTWNEILDAFHTYQVIYFPGQAITNEQHIAFSRRFGPVDPVPILKSIEGYPEVQMIRREANESSRYIGDDWHADSTFLDAPPAAVVMRAIEVPEYGGDTGFLSMYSAWETLSPTMQATIEGLNVVHSATKVFGSLYQATNWRFSGTSVKVMDVDAGDRETVHPLVVTHPVTGRRALYCNQVYCQKIQGMTDAESKSLLQFLYEHATQFDFTCRVRWKKDQVLVWDNLCTMHRAVPDYAGKFRYLTRTTVAGDKPSR
EXPERIMENTAL_RESULT: detectable activity
